meta.source: patent US20210395344A1

target: T1, SARS-CoV-2 Spike Glycoprotein S1 (subunit 1) (SARS-CoV-2, UniProt P0DTC2 16-685); test: screening phage ELISA, mean
T1 construct: also called S1 Monomer; SARS-CoV-2 S1
As shown below, each of these binders has a reported ELISA (Avg) value.
Number only, no unit.

Check out these entries, answers already filled in.
1-10 (antibody, V domains shown) VH: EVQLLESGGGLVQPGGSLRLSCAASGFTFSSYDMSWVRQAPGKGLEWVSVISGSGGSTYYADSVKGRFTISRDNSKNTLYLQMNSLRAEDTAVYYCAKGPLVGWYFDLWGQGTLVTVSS VL: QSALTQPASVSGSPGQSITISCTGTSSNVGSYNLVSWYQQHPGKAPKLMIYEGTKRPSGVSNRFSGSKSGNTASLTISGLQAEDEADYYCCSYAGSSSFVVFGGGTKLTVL	16.9
1-7 (antibody, V domains shown) VH: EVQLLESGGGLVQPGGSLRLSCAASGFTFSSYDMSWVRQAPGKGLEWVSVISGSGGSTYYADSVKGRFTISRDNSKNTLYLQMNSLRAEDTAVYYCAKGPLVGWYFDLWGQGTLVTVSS VL: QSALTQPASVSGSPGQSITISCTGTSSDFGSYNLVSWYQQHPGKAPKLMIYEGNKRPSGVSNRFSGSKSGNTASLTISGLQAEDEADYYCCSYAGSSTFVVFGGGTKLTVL	22.5

Read off the recorded ELISA (Avg) for 1-28 (antibody, V domains shown) VH: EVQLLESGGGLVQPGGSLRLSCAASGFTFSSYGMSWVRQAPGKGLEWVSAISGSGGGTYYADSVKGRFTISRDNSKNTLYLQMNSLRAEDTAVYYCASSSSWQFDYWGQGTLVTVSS VL: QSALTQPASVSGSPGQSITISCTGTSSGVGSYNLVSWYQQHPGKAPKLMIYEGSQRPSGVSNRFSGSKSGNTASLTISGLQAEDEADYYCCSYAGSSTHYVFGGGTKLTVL
17.7
